Quick reference: kd of the listed items.
System Under Test: T1, human ARG2 (Homo sapiens, UniProt P78540, E275H/R327K)
T1 construct: His10 (after a GGG linker) (C); made in house; host or cells: E. coli BL21 (DE3)
T1 sequence (P78540 23-354 E275H/R327K): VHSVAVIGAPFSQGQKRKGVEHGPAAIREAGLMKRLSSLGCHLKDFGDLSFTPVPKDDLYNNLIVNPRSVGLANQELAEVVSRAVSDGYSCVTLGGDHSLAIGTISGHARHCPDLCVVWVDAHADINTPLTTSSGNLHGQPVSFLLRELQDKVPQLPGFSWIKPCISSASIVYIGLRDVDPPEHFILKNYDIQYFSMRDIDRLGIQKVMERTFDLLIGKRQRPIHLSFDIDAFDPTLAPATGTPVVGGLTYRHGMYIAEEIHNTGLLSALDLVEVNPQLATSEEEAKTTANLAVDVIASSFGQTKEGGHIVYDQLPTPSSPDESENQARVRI
Measurement Notes: Bio-Layer Interferometry (OctetRED) binding kinetics, human ARG2
Measurement Setup: Fab as analyte; streptavidin capture; analyte 1.8 to 120 nM; affinity-matured antibodies
Hi! Could you send only the number? It should be in s⁻¹, unit omitted.

[
  {
    "Molecule": "C0021021 Fab (antibody, V domains shown) VH: EVQLLESGGGLVQPGGSLRLSCAASGFTFSSYAMSWVRQAPGKGLEWVSSILFSPGSTYYADSVKGRFTISRDNSKNTLYLQMNSLRAEDTAVYYCARLRADLGLYMDLWGRGTLVTVSS VL: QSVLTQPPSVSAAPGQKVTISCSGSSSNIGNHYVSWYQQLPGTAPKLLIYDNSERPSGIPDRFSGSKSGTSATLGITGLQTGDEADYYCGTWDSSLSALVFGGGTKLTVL",
    "Units": "s⁻¹",
    "Measured Number": 0.002
  },
  {
    "Molecule": "C0021141 Fab (antibody, V domains shown) VH: EVQLLESGGGLVQPGGSLRLSCAASGFTFYPDPQGWVRQAPGKGLEWVSAYGYGIGSTYYADSVKGRFTISRDNSKNTLYLQMNSLRAEDTAVYYCARLRADLGLYMDLWGRGTLVTVSS VL: QSVLTQPPSVSAAPGQEVTISCSGSSSNIDNHYVSWYQQLPGTAPKLLIYDNSERPSGIPDRFSGSKSGTSATLGITGLQTGDEADYYCGTWDSSLSALVFGGGTKLTVL",
    "Units": "s⁻¹",
    "Measured Number": 0.00108
  },
  {
    "Molecule": "C0021139: anti-ARG2 antibody, VH SEQ ID NO: 212, VL SEQ ID NO: 217 (antibody, listed as Homo sapiens, V domains shown, C0021139) VH: EVQLLESGGGLVQPGGSLRLSCAASGFTFQYDYQVWVRQAPGKGLEWVSAISGSGGSTYYADSVKGRFTISRDNSKNTLYLQMNSLRAEDTAVYYCARLRADLGLYMDLWGRGTLVTVSS VL: QSVLTQPPSVSAAPGQKVTISCSGSSSNIGNHYVSWYQQLPGTAPKLLIYDNSERTSGIPDRFSGSKSGTSATLGITGLQTGDEADYYCGTWDELTSNLVFGGGTKLTVL",
    "Units": "s⁻¹",
    "Measured Number": 0.000871
  },
  {
    "Molecule": "C0021096 Fab (antibody, V domains shown) VH: EVQLLESGGGLVQPGGSLRLSCAASGFTFSSYAMSWVRQAPGKGLEWVSAISGYSGYYADSVKGRFTISRDNSKNTLYLQMNSLRAEDTAVYYCARLRADLGLYMDLWGRGTLVTVSS VL: QSVLTQPPSVSAAPGQKVTISCSGSSSNIGNHYVSWYQQLPGTAPKLLIYNTERRMSGIPDRFSGSKSGTSATLGITGLQTGDEADYYCGTWDSSLSALVFGGGTKLTVL",
    "Units": "s⁻¹",
    "Measured Number": 0.00154
  }
]

Now examine the next entry.
// sample C0021128: anti-ARG2 antibody, VH SEQ ID NO: 162, VL SEQ ID NO: 167 (antibody, listed as Homo sapiens, V domains shown, C0021128) VH: EVQLLESGGGLVQPGGSLRLSCAASGFTFQYEVAAWVRQAPGKGLEWVSAISGPIPKGYYADSVKGRFTISRDNSKNTLYLQMNSLRAEDTAVYYCARLRADLGLYMDLWGRGTLVTVSS VL: QSVLTQPPSVSAAPGQKVTISCSGSSSNIGNHYVSWYQQLPGTAPKLLIYDNAIESSGIPDRFSGSKSGTSATLGITGLQTGDGADYYCGTWDSNLSALVFGGGTKLTVL , its kd was 0.000674

Taken from patent US20220403048A1.
